Could you please report measured pIC50 for the items listed next?
biological target: Lck (p56^lck) (Homo sapiens); construct: purchased Upstate (UBI); assay: SRC-Inhibitor-Assay, time-resolved fluorescence kinase assay (Lck); type: biochemical; conditions: ATP 5 μM; enzyme 2.5 U/ml; pre-incubation 15 min at 15° C.; read-out: IC 50 (lck)
Answers are plain numbers, as −log10 of the molar value.

Example cases with answers are listed next.
[
  {
    "Substance smiles": "CN1C(=O)c2ccc(Nc3ncc4c(n3)N(C)C(=O)N(c3c(F)cccc3Br)C4)cc2C1=O",
    "pIC50": 7.68
  },
  {
    "Substance smiles": "COc1ccc(Br)c(N2Cc3cnc(Nc4ccc5c(c4)S(=O)(=O)CCO5)nc3N(C)C2=O)c1",
    "pIC50": 7.43
  },
  {
    "Substance smiles": "CN1C(=O)N(c2c(F)cccc2Br)Cc2cnc(Nc3ccc4c(c3)S(=O)(=O)CCO4)nc21",
    "pIC50": 8.33
  },
  {
    "Substance smiles": "CN1C(=O)CSc2cc(Nc3ncc4c(n3)N(C)C(=O)N(c3c(F)cccc3Br)C4)ccc21",
    "pIC50": 7.85
  }
]

Moving on to the next molecule.
Q: Name the value of pIC50 reported for `CN1C(=O)N(c2ccccc2Br)Cc2cnc(Nc3ccc4c(c3)S(=O)(=O)CO4)nc21` when tested on Lck (p56^lck) (Homo sapiens).
A: 7.53

====

target: Src (p60^c-src) (Homo sapiens, UniProt P12931); construct: purchased Upstate (UBI); test: SRC-Inhibitor-Assay, time-resolved fluorescence kinase assay (Src); assay type: biochemical; conditions: IC 50 (src), ATP 5 μM; enzyme 2.5 U/ml; pre-incubation 15 min at 15° C.
Sequence (P12931 whole entry): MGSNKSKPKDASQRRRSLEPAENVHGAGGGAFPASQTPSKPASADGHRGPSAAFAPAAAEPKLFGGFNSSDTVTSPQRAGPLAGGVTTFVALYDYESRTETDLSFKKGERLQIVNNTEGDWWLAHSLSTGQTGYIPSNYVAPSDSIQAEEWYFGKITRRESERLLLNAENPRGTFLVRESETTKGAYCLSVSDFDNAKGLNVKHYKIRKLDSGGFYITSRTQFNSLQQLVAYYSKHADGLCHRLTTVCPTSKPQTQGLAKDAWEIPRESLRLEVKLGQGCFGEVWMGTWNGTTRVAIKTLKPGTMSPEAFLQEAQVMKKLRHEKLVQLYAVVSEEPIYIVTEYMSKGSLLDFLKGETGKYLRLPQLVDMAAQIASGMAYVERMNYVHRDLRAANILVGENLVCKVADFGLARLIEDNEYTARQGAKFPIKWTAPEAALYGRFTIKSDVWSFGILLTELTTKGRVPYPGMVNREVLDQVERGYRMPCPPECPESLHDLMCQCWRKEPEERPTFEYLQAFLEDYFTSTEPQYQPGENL
Could you please report measured pIC50 for the items listed next?
One number for each entry, as −log10 of the molar value.

[
  {
    "Molecule": "CN1C(=O)N(c2c(F)cccc2Br)Cc2cnc(Nc3ccc4c(c3)OC3(CCNCC3)O4)nc21 [Example 13-46]",
    "Measured value": 8.64
  }
]

Moving on to the next molecule.
Q: Give the measured pIC50 for CN1C(=O)N(c2ccccc2Br)Cc2cnc(Nc3ccc4c(c3)OC3(CCNCC3)O4)nc21 [Example 7]
A: 8.70

====

target: Lck (p56^lck) (Homo sapiens, UniProt P06239); construct: purchased Upstate (UBI); assay: SRC-Inhibitor-Assay, time-resolved fluorescence kinase assay (Lck); type: biochemical; conditions: ATP 5 μM; enzyme 2.5 U/ml; pre-incubation 15 min at 15° C.; read-out: IC 50 (lck)
Sequence (P06239 whole entry, species assumed): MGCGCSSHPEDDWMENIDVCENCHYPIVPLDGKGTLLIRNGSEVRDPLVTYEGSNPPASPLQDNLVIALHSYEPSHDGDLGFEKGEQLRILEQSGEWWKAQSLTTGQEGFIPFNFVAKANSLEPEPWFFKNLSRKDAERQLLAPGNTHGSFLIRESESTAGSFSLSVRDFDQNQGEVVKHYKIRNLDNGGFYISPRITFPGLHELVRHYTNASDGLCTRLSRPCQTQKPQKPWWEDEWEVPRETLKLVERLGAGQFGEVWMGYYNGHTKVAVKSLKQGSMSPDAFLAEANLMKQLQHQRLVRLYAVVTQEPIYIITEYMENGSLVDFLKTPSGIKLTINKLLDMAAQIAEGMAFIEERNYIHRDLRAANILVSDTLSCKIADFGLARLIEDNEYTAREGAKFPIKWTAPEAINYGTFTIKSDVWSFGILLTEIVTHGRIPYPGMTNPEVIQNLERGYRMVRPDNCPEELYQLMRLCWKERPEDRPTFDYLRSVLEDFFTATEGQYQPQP
Recorded metric: pIC50
Give bare numbers, as −log10 of the molar value.

[
  {
    "Compound": "CC1c2cnc(Nc3ccc4c(c3)S(=O)(=O)CCO4)nc2N(C)C(=O)N1c1ccccc1Br (single isomer, unassigned; enantiomer 1) [Example 8a]",
    "pIC50": 8.09
  },
  {
    "Compound": "CC1c2cnc(Nc3ccc4c(c3)S(=O)(=O)CCO4)nc2N(C)C(=O)N1c1ccccc1Br (single isomer, unassigned; enantiomer 2) [Example 13-50]",
    "pIC50": 5.87
  },
  {
    "Compound": "O=C1CS(=O)(=O)c2cc(Nc3ncc4c(n3)NC(=O)N(c3c(F)cccc3Br)C4)ccc2N1",
    "pIC50": 8.17
  }
]

Moving on to the next compound.
Q: Give the measured pIC50 for `CN1C(=O)N(c2c(F)cccc2C#N)Cc2cnc(Nc3ccc4c(c3)S(=O)(=O)CCO4)nc21`
A: 7.89

====

assay: Pharmacokinetic study in mice, plasma levels after single p.o. dose; format: in vivo; conditions: male NMRI mice, p.o. single dose 30 mg/kg as micro-suspension, dose-normalised
Recorded metric: AUC = area under the curve from T = 0 to T = 24 hrs

Example cases with answers are listed next.
[
  {
    "Compound": "CN1C(=O)N(c2ccccc2Br)Cc2cnc(Nc3ccc4c(c3)OCC(CO)O4)nc21 (stereo not shown)",
    "Measured value": "379 (h * ng/ml))/(mg/kg)"
  },
  {
    "Compound": "CN1C(=O)N(c2ccccc2Br)Cc2cnc(Nc3ccc4c(c3)OCC(CN3CCCC3)O4)nc21 (stereo not shown)",
    "Measured value": "120 (h * ng/ml))/(mg/kg)"
  },
  {
    "Compound": "CCN(CC)CCOc1ccc(Nc2ncc3c(n2)N(C)C(=O)N(c2ccccc2Br)C3)cc1 [Reference cpd 43 from WO 00/24744A, reference compound]",
    "Measured value": "69.3 (h * ng/ml))/(mg/kg)"
  },
  {
    "Compound": "CN1C(=O)N(c2ccccc2Br)Cc2cnc(Nc3ccc4c(c3)OC3(CCNCC3)O4)nc21",
    "Measured value": "813 (h * ng/ml))/(mg/kg)"
  },
  {
    "Compound": "CC(=O)N1CCC2(CC1)Oc1ccc(Nc3ncc4c(n3)N(C)C(=O)N(c3ccccc3Br)C4)cc1O2",
    "Measured value": "315 (h * ng/ml))/(mg/kg)"
  },
  {
    "Compound": "CN1C(=O)CSc2cc(Nc3ncc4c(n3)N(C)C(=O)N(c3c(F)cccc3Br)C4)ccc21",
    "Measured value": "592 (h * ng/ml))/(mg/kg)"
  }
]

Moving on to the next compound.
Q: Give the measured AUC = area under the curve from T = 0 to T = 24 hrs for `CN1C(=O)N(c2c(F)cccc2Br)Cc2cnc(Nc3ccc4c(c3)OC3(CCNCC3)O4)nc21`
A: 234 (h * ng/ml))/(mg/kg)

====

Could you please report measured melting point for the items listed next?

// input: 5 molecules below; output: melting point for each
1. CN1C(=O)CSc2cc(Nc3ncc4c(n3)N(C)C(=O)N(c3c(F)cccc3Br)C4)ccc21 [Example 13-12]
2. CN1C(=O)N(c2ccccc2Br)Cc2cnc(Nc3ccc4c(c3)OCC(CN3CCCC3)O4)nc21 (centres unmarked) [Example 13-21]
3. CN1CCS(=O)(=O)c2cc(Nc3ncc4c(n3)N(C)C(=O)N(c3ccccc3Br)C4)ccc21 [Example 13-26]
4. CN1C(=O)N(c2c(F)cccc2Br)Cc2cnc(Nc3ccc4c(c3)OC3(CCNCC3)O4)nc21 [Example 13-46]
5. CN1C(=O)N(c2ccccc2Br)Cc2cnc(Nc3ccc4c(c3)OCC(CO)O4)nc21 (centres unmarked) [Example 1]

A:
["145 to 149 °C", "201 to 203 °C", "250 to 251 °C", "146 to 153 °C", "156 to 158 °C"]

====

biological target: Lck (p56^lck) (Homo sapiens); construct: purchased Upstate (UBI); experiment: SRC-Inhibitor-Assay, time-resolved fluorescence kinase assay (Lck); type: biochemical; details: ATP 5 μM; enzyme 2.5 U/ml; pre-incubation 15 min at 15° C.; read-out: IC 50 (lck)
pIC50: −log10 of the molar value. Where a name gives a salt, the structure may show the parent alone.
Rule: pIC50 under 8 gives 0, otherwise 1.

[
  {
    "Compound": "CN1C(=O)N(c2ccccc2Br)Cc2cnc(Nc3ccc4c(c3)OCO4)nc21",
    "Answer label": 0
  },
  {
    "Compound": "CN1CCS(=O)(=O)c2cc(Nc3ncc4c(n3)N(C)C(=O)N(c3c(F)cccc3Br)C4)ccc21",
    "Answer label": 1
  },
  {
    "Compound": "COc1cccc(F)c1N1Cc2cnc(Nc3ccc4c(c3)S(=O)(=O)CCO4)nc2N(C)C1=O",
    "Answer label": 1
  },
  {
    "Compound": "CC1c2cnc(Nc3ccc4c(c3)S(=O)(=O)CC(=O)N4C)nc2N(C)C(=O)N1c1ccccc1Br (single isomer, unassigned; enantiomer 2) [Example 13-51]",
    "Answer label": 0
  },
  {
    "Compound": "CC1c2cnc(Nc3ccc4c(c3)S(=O)(=O)CC(=O)N4C)nc2N(C)C(=O)N1c1ccccc1Br (single isomer, unassigned; enantiomer 1) [Example 13-52]",
    "Answer label": 1
  }
]

Then there is this compound:
Q: Assess whether reported pIC50 for CN1Cc2ccc(Nc3ncc4c(n3)N(C)C(=O)N(c3ccccc3Br)C4)cc2C1 [Example 13-3, hydrochloride salt] sits at 8 or higher.
A: 1

====

Target: Src (p60^c-src) (Homo sapiens, UniProt P12931)
Construct: purchased Upstate (UBI)
Experiment: SRC-Inhibitor-Assay, time-resolved fluorescence kinase assay (Src)
Type: biochemical
Conditions: ATP 5 μM; enzyme 2.5 U/ml; pre-incubation 15 min at 15° C.; read-out: IC 50 (src)
Source text: The activity of the compounds according to this invention as inhibitors for the src-family tyrosine kinases was shown by using the following assay. SRC-Inhibitor-Assay Parameters: […] Material: Eu-labelled phosphotyrosine antibody:—for Lck Cisbio Mab PT66-K, for Src EG&G Wallac PT66 Eu-W1024 (all commercially available). […] Time-resolved Fluorescence Assay: Reader: Perkin Elmer, Wallac Viktor 1420-040 multilabel counter; Liquid handling system: Beckman Coulter, Biomek 2000. […]
Structures can show the parent of a compound that is named as a salt.
Recorded metric: pIC50
Give bare numbers, as −log10 of the molar value.

Example cases with answers are listed next.
[
  {
    "Compound": "COc1ccc(Br)c(N2Cc3cnc(Nc4ccc5c(c4)S(=O)(=O)CCO5)nc3N(C)C2=O)c1 [Example 13-48]",
    "pIC50": 7.14
  },
  {
    "Compound": "CN1C(=O)N(c2c(F)cccc2Br)Cc2cnc(Nc3ccc4c(c3)S(=O)(=O)CCO4)nc21 [Example 8]",
    "pIC50": 8.74
  },
  {
    "Compound": "COc1cccc(F)c1N1Cc2cnc(Nc3ccc4c(c3)S(=O)(=O)CCO4)nc2N(C)C1=O [Example 13-49]",
    "pIC50": 8.14
  },
  {
    "Compound": "CN1C(=O)c2ccc(Nc3ncc4c(n3)N(C)C(=O)N(c3c(F)cccc3Br)C4)cc2C1=O [Example 13-16]",
    "pIC50": 7.96
  },
  {
    "Compound": "CN1C(=O)N(c2ccccc2Br)Cc2cnc(Nc3ccc4c(c3)OCC(CO)O4)nc21 (stereo not shown) [Example 1]",
    "pIC50": 8.12
  },
  {
    "Compound": "O=C1CS(=O)(=O)c2cc(Nc3ncc4c(n3)NC(=O)N(c3c(F)cccc3Br)C4)ccc2N1 [Example 13-29]",
    "pIC50": 8.60
  }
]

// input: 7 compounds below; output: pIC50 for each
1. CN1CCS(=O)(=O)c2cc(Nc3ncc4c(n3)N(C)C(=O)N(c3c(F)cccc3Br)C4)ccc21 [Example 11]
2. CC1c2cnc(Nc3ccc4c(c3)S(=O)(=O)CCO4)nc2N(C)C(=O)N1c1ccccc1Br (single isomer, unassigned; enantiomer 1) [Example 8a]
3. CN1C(=O)N(c2ccccc2Br)Cc2cnc(Nc3ccc4c(c3)OCO4)nc21 [Example 13-8]
4. CC1c2cnc(Nc3ccc4c(c3)S(=O)(=O)CC(=O)N4C)nc2N(C)C(=O)N1c1ccccc1Br (single isomer, unassigned; enantiomer 1) [Example 13-52]
5. CN1C(=O)N(c2c(F)cccc2C#N)Cc2cnc(Nc3ccc4c(c3)S(=O)(=O)CCO4)nc21 [Example 13-53]
6. CN1C(=O)N(c2ccccc2Br)Cc2cnc(Nc3ccc4c(c3)S(=O)(=O)CO4)nc21 [Example 13-4]
7. CC1c2cnc(Nc3ccc4c(c3)S(=O)(=O)CC(=O)N4C)nc2N(C)C(=O)N1c1ccccc1Br (single isomer, unassigned; enantiomer 2) [Example 13-51]

A:
9.10
9.40
7.77
10.72
8.37
7.77
5.60

// input: 3 compounds below; output: pIC50 for each
1. CN1Cc2ccc(Nc3ncc4c(n3)N(C)C(=O)N(c3ccccc3Br)C4)cc2C1 [Example 13-3, hydrochloride salt]
2. CC1c2cnc(Nc3ccc4c(c3)S(=O)(=O)CCO4)nc2N(C)C(=O)N1c1ccccc1Br (single isomer, unassigned; enantiomer 2) [Example 13-50]
3. CN1C(=O)CSc2cc(Nc3ncc4c(n3)N(C)C(=O)N(c3c(F)cccc3Br)C4)ccc21 [Example 13-12]

A:
8.82
5.53
8.38
